Data credit: the supplement of paper PMC9170038

Please respond with reported apparent KD of MS2 coat protein for every item in the list.
- Test system: MS2 coat protein
- Experimental protocol: apparent KD of MS2 coat protein; higher = weaker reporter binding
- Condition info: Eterna round: R107; input ligand: arginine 13.2 mM
Note: state the figure and append the unit.

For every record below, what is its apparent KD of MS2 coat protein?
1. GGUCUCUGGAGCGAUACCAGCUUAAAUGUACUGGCCAGGUACAUGAGGAUCACCCAUGUAAGCCCUUGGCAGCGCUCCAGAGACC [#1 Exclusion - Theophylline B Attempt #13 (HarryS)]
2. UUUAUUAUUGACUCGUUUUGGUAUUAAGAACGAGGACCGGUACGGCCGCCACUCGUGAUAUACAUGAGGAUCACCCAUGUUAGCA [JR_Nu_SSTryptoA_Sub021]
3. UACAUGAGGAUCACCCAUGUCCCAUGUGAACGAGGACCGGUACGGCCGCCACUCGACCGAGGCGGCACAUGAGGAUCACCCGCAU [whbob_SS_trypto A_2s15]
4. UGCAAAUGAUGAGAUACCAGUUCAGUUAAAUACAUGAGGAUCACCCAUGUCAGGGAACUCAACCCUUGGCAGCUCGAUGCACUCA [theeternabot_sameState_MS2_Theo_B_43]

1: 12.3 nM; 2: 19.4 nM; 3: 121 nM; 4: 48 nM

Recall and state the measured apparent KD of MS2 coat protein for GCACUACAUGAGGAUCACCCAUGUGCAGAUACCAGAGGUGUAUGCCUCCCUUGGCAGCUGCGUCGCUCUGGAAGCCUAUUGGUUU [Same State Theophylline A GF16] . 15.8 nM
